Values from patent US20210238260

tested_target: Factor X, P00742
Sequence (P00742 whole entry, looked up): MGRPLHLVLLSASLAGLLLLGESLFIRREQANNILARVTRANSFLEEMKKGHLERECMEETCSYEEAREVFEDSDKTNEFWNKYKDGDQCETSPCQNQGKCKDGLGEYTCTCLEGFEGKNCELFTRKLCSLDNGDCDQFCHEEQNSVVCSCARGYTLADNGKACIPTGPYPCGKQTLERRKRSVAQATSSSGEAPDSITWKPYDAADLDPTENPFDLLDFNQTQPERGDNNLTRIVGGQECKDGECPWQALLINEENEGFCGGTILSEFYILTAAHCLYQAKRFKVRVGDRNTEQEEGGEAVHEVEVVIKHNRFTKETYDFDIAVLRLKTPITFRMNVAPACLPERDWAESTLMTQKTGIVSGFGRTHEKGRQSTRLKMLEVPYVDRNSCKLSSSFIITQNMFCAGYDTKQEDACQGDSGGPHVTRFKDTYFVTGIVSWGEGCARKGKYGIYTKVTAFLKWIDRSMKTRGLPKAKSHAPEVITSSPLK
Please provide measured kcat for the entries that follow.
Report as: number unit

[[record]]
protein = "FIXa-K247N/N249S/R318Y/R403E/E410N (protein) chain 1: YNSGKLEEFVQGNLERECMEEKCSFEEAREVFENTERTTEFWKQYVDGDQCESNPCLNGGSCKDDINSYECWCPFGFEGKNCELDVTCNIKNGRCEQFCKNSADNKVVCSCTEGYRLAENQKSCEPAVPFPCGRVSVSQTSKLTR chain 2: VVGGEDAKPGQFPWQVVLNGKVDAFCGGSIVNEKWIVTAAHCVETGVKITVVAGEHNIEETEHTEQNRSVIRIIPHHNYNAAINKYNHDIALLELDEPLVLNSYVTPICIADKEYTNIFLKFGSGYVSGWGRVFHKGYSALVLQYLRVPLVDRATCLRSTKFTIYNNMFCAGFHEGGRDSCQGDSGGPHVTEVEGTSFLTGIISWGEECAMKGKYGIYTKVSEYVNWIKNKTKLT"
reported_endpoint = "kcat"
assay_value = "2.9 s⁻¹"


Requested read-out: kcat. Entry: FIXa-R318Y/R338E/T343R/E410N (protein) chain 1: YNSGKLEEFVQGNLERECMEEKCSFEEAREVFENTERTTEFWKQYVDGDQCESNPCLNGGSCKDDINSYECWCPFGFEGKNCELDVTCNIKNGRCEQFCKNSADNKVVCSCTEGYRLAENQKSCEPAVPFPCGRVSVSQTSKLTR chain 2: VVGGEDAKPGQFPWQVVLNGKVDAFCGGSIVNEKWIVTAAHCVETGVKITVVAGEHNIEETEHTEQKRNVIRIIPHHNYNAAINKYNHDIALLELDEPLVLNSYVTPICIADKEYTNIFLKFGSGYVSGWGRVFHKGYSALVLQYLRVPLVDRATCLESTKFRIYNNMFCAGFHEGGRDSCQGDSGGPHVTEVEGTSFLTGIISWGEECAMKGKYGIYTKVSRYVNWIKNKTKLT
4.9 s⁻¹
